Catalogue of compounds with associated remaining activity at 1 µM
assayed_system: IKK (Homo sapiens, UniProt O14920)
Sequence (O14920 1-756): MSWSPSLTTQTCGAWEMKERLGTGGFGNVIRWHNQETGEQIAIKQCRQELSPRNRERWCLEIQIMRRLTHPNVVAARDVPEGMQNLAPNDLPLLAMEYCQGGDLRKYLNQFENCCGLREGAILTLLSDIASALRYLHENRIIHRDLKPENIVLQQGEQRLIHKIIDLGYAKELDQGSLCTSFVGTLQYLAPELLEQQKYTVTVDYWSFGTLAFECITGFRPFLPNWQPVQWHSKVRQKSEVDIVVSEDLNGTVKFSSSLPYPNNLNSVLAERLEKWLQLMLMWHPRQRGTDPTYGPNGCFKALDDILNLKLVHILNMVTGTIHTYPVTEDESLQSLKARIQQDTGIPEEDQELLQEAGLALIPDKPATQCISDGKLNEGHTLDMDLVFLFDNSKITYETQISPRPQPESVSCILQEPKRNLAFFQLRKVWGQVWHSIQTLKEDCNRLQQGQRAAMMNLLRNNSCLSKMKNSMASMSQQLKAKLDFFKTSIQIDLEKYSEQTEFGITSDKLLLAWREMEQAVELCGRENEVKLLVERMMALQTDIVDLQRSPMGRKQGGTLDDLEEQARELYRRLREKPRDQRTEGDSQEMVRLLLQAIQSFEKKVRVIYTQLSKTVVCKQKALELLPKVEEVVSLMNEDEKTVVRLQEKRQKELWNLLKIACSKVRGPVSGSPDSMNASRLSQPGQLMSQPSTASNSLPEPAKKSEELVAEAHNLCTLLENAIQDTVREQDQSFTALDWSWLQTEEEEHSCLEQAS
assay_procedure: Kinase profiling (radiometric filter-binding)
Type: biochemical
conditions_used: first of two IKK lines (Greek letter lost), 1 µM inhibitor, read-out: Residual activity, %
Protocol: Kinase selectivity profiling was performed using the commercial service provided by the MRC PPU International Centre for Kinase Profiling (Dundee, UK) using a radiometric filter-binding assay. Kinases used for analysis were of human origin. The ATP concentration applied for inhibition measurements was at or below the ATP KM value of the particular PK. […] Residual activities were expressed as the percentage of retained activity compared to the control without inhibitor.
Please respond with the number in % and leave the unit unwritten.

compound	value_unit	remaining activity at 1 µM
N=C(N)NCCC[C@@H](NC(=O)CNC(=O)[C@@H](CCCNC(=N)N)NC(=O)[C@@H](CCCNC(=N)N)NC(=O)CCCCCCCNCc1nc2c(sc3cc(Br)cnc32)c(=O)[nH]1)C(=O)N[C@H](CCCCN)C(N)=O [Compound 1, BPTP-Aoc-(D-Arg)2-Gly-D-Arg-D-Lys-NH2]	%	97

// next entry
Query: Look up remaining activity at 1 µM: N=C(N)NCCC[C@@H](NC(=O)CNC(=O)[C@@H](CCCNC(=N)N)NC(=O)[C@@H](CCCNC(=N)N)NC(=O)Cn1cc(CNCc2nc3c(sc4ccc(Br)cc43)c(=O)[nH]2)nn1)C(=O)N[C@H](CCCCN)C(N)=O [Compound 3, BBTP-Amt-(D-Arg)2-Gly-D-Arg-D-Lys-NH2]
Reply: 90

---

Catalogue of molecules with associated remaining activity at 1 µM
assayed_system: EPH-A4 (Homo sapiens)
Sequence (P54764 20-986): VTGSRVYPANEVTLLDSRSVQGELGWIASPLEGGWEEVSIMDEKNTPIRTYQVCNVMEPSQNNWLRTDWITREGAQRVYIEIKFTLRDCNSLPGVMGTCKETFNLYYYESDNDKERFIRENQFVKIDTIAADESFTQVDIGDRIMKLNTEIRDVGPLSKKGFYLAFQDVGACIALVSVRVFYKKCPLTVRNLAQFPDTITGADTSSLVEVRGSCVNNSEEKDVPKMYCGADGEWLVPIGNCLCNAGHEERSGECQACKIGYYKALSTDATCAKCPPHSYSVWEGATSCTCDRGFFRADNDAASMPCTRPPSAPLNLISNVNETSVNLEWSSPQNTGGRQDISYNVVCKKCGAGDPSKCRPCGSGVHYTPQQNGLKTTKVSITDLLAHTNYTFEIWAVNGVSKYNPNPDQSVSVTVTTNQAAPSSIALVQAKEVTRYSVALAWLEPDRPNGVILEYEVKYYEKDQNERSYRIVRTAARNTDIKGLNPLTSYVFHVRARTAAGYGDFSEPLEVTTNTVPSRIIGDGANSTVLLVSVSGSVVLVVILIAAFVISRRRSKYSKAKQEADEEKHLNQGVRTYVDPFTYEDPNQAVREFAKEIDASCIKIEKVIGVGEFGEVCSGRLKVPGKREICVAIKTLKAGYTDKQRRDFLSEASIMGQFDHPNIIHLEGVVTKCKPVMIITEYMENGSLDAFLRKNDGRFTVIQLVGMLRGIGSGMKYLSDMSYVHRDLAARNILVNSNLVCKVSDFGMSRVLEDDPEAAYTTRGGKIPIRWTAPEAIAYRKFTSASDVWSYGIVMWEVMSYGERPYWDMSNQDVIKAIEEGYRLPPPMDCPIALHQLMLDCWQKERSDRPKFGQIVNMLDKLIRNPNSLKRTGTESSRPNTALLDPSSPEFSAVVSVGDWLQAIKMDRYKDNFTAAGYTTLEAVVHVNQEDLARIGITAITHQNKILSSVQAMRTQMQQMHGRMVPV
assay_procedure: Kinase profiling (radiometric filter-binding)
Assay type: biochemical
conditions_used: EPH-A4, 1 µM inhibitor; read-out: Residual activity, %
Square brackets hold non-standard residues; d marks the D form. Peptide text beside a SMILES is read from it. * marks the point of attachment. X3 = O=C(CCCCCNCc1nc2c(sc3cc(Br)cnc32)c(=O)[nH]1)*
Please respond with the number in % and leave the unit unwritten.

molecule	attribute_measured	value_unit	assay_value
N=C(N)NCCC[C@@H](NC(=O)CNC(=O)[C@@H](CCCNC(=N)N)NC(=O)[C@@H](CCCNC(=N)N)NC(=O)Cn1cc(CNCc2nc3c(sc4ccc(Br)cc43)c(=O)[nH]2)nn1)C(=O)N[C@H](CCCCN)C(N)=O	remaining activity at 1 µM	%	95

Query: Look up remaining activity at 1 µM: N=C(N)NCCC[C@@H](NC(=O)CCCCCNC(=O)Cn1cnc2c(I)c(I)c(I)c(I)c21)C(=O)N[C@H](CCCNC(=N)N)C(=O)N[C@H](CCCNC(=N)N)C(=O)N[C@H](CCCNC(=N)N)C(=O)N[C@H](CCCNC(=N)N)C(=O)N[C@H](CCCNC(=N)N)C(=O)N[C@H](CCCCN)C(N)=O
Reply: 97

Query: Here is the next molecule: N=C(N)NCCC[C@@H](NC(=O)CNC(=O)[C@@H](CCCNC(=N)N)NC(=O)[C@@H](CCCNC(=N)N)NC(=O)CCCCCCCNCc1nc2c(sc3cc(Br)cnc32)c(=O)[nH]1)C(=O)N[C@H](CCCCN)C(N)=O
Reply: 97

Query: Here is the next molecule: N=C(N)NCCC[C@@H](NC(=O)CCCCCNCc1nc2c(sc3cc(Br)cnc32)c(=O)[nH]1)C(=O)N[C@H](CCCNC(=N)N)C(=O)N[C@H](CCCNC(=N)N)C(=O)N[C@H](CCCNC(=N)N)C(=O)N[C@H](CCCNC(=N)N)C(=O)N[C@H](CCCNC(=N)N)C(=O)N[C@H](CCCCN)C(N)=O [ARC-3126, BPTP-Ahx-(D-Arg)6-D-Lys-NH2] (X3-[dR][dR][dR][dR][dR][dR][dK]-NH2)
Reply: 107

Query: Here is the next molecule: N=C(N)NCCC[C@@H](NC(=O)CNC(=O)[C@@H](CCCNC(=N)N)NC(=O)[C@@H](CCCNC(=N)N)NC(=O)CCCCCCCNCc1nc2c(sc3ccc(Br)cc32)c(=O)[nH]1)C(=O)N[C@H](CCCCN)C(N)=O
Reply: 103

Values were extracted from paper PMC8307404.
